Catalogue of IC50 readings, one per entry.
Tested on: T. gondii RH
Assay: In vitro growth inhibition of RFP-expressing tachyzoites in hTERT fibroblasts
Format: cell-based, Toxoplasma gondii
Details: Toxoplasma gondii, Fibroblast; T. gondii growth in vitro
Give the value in nM but do not write nM after it.

CCCCCCCCC(O)(P(=O)(O)O)P(=O)(O)O : 850

Query string: Recorded IC50 for CCCCCCCCCCCCCCCn1cc[n+](CC(O)(P(=O)([O-])O)P(=O)(O)O)c1 (centres unmarked) with T. gondii RH, please?
Result string: 1650

---

Target: recombinant TgCoq1 (Toxoplasma gondii, UniProt S8EY63)
Sequence (S8EY63 152-676): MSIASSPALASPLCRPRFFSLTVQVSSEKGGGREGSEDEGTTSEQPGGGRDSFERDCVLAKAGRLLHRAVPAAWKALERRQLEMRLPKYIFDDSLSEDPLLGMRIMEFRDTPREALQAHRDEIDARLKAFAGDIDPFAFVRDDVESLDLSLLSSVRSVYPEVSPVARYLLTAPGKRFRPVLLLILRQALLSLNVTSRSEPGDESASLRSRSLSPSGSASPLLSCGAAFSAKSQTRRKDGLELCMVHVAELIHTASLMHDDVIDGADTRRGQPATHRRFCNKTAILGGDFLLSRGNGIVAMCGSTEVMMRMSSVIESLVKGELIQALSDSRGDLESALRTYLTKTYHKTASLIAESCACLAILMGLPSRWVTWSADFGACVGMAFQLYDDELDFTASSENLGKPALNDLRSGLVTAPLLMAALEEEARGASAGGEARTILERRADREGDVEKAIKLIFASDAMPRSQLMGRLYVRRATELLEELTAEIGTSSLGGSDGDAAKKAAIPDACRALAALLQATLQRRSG
Assay: biochemical
Catalogue of pIC50 readings, one per entry.
Note on units: pIC50 is unitless, being -log10 of a concentration expressed in mol/L.

CCCCCCCCC(O)(P(=O)(O)O)P(=O)(O)O [BPH-252] : 5.67

Query string: Entry under review: CCCCCCCCCCCCCCCn1cc[n+](CC(O)(P(=O)([O-])O)P(=O)(O)O)c1 (centres unmarked) [BPH-1325] . Reported pIC50?
Result string: 5.77

---

System: hTERT cells
Test: Cytotoxicity to hTERT cells (alamarBlue)
Conditions: hTERT cells, at 4X EC50 (concentration in μM in brackets)
Label class 0 if % Inhibition (cytotoxicity) falls below 4%; label class 1 in every other case.

Before answering, review these 5 worked examples.
CCCCCCCCn1cc[n+](CC(P(=O)([O-])O)P(=O)(O)O)c1 (stereo not drawn) [BPH-1217] : class 1
CCCCCCCCCCn1cc[n+](CC(P(=O)([O-])O)P(=O)(O)O)c1 (stereo not drawn) [BPH-1218] : class 1
CCCCCCCCCCCCCCn1cc[n+](CC(P(=O)([O-])O)P(=O)(O)O)c1 (stereo not drawn) [BPH-1219] : class 0
CCCCCCCCCn1cc[n+](CC(O)(P(=O)([O-])O)P(=O)(O)O)c1 (stereo not drawn) [BPH-1238] : class 1
CCCCCCCCCCCn1cc[n+](CC(O)(P(=O)([O-])O)P(=O)(O)O)c1 (stereo not drawn) [BPH-1236] : class 1

Moving on to the next molecule.
Query string: Threshold query (% Inhibition (cytotoxicity) >= 4%) on Cc1[nH]c2c(c(=O)c1-c1ccc(Oc3ccc(OC(F)(F)F)cc3)cc1)CCCC2 [JAG-21]
Result string: class 1

---

Catalogue of IC50 readings, one per entry.
Target: recombinant TgFPPS (Toxoplasma gondii, UniProt Q197X6)
Sequence (Q197X6 entry or part of it): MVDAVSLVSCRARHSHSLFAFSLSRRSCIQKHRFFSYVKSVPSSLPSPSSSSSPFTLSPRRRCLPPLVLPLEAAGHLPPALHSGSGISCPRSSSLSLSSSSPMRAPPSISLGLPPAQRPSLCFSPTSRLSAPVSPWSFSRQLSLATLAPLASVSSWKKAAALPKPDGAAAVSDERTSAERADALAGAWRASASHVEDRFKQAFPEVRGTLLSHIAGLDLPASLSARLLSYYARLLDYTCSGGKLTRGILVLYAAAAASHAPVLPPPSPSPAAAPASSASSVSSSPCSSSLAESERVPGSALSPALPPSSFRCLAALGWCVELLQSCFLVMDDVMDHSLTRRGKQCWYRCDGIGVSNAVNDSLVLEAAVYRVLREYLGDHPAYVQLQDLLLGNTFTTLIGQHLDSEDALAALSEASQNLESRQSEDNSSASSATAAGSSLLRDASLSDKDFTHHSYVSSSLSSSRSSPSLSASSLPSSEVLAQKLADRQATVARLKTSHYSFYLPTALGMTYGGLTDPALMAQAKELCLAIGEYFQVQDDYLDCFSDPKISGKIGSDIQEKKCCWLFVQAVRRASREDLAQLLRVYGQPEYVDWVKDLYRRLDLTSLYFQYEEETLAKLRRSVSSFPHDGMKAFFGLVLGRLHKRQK
Experiment: biochemical

CCCCCCCCCCCCCCCn1cc[n+](CC(O)(P(=O)([O-])O)P(=O)(O)O)c1 (centres unmarked) [BPH-1325] : 700 nM

Query string: Recorded IC50 for CCCCCCCCC(O)(P(=O)(O)O)P(=O)(O)O [BPH-252] with recombinant TgFPPS (Toxoplasma gondii, UniProt Q197X6), please?
Result string: 130 nM

---

Test system: hTERT cells
Experiment: Cytotoxicity to hTERT cells (alamarBlue)
Conditions: hTERT cells, at 10X EC50 (concentration in μM in brackets)
Method: The cytotoxicity was tested using an alamarBlue assay as described by Recher et al. ([67]).
property measured: % Inhibition (cytotoxicity) (%)
Give the value in % but do not write % after it.

Cc1[nH]c2c(c(=O)c1-c1ccc(Oc3ccc(OC(F)(F)F)cc3)cc1)CCCC2 [JAG-21] : 5.75
CCCCCCCCCCn1cc[n+](CC(P(=O)([O-])O)P(=O)(O)O)c1 (stereo not drawn) [BPH-1218] : 10.28
CCCCCCCCCn1cc[n+](CC(O)(P(=O)([O-])O)P(=O)(O)O)c1 (stereo not drawn) [BPH-1238] : 13.37
CCCCCCCCCCCCCCn1cc[n+](CC(P(=O)([O-])O)P(=O)(O)O)c1 (stereo not drawn) [BPH-1219] : 8.01
CCCCCCCCn1cc[n+](CC(P(=O)([O-])O)P(=O)(O)O)c1 (stereo not drawn) [BPH-1217] : 6.19

Query string: Entry under review: CCCCCCCCCCCn1cc[n+](CC(O)(P(=O)([O-])O)P(=O)(O)O)c1 (stereo not drawn) [BPH-1236] . Reported % Inhibition (cytotoxicity)?
Result string: 9.10
